target: Acetylcholinesterase (Homo sapiens); assay: Inhibition of human recombinant AChE using acetylthiocholine iodide as substrate preincubated for 20 mins before substrate addition by Ellman method
Sequence (P22303 whole entry): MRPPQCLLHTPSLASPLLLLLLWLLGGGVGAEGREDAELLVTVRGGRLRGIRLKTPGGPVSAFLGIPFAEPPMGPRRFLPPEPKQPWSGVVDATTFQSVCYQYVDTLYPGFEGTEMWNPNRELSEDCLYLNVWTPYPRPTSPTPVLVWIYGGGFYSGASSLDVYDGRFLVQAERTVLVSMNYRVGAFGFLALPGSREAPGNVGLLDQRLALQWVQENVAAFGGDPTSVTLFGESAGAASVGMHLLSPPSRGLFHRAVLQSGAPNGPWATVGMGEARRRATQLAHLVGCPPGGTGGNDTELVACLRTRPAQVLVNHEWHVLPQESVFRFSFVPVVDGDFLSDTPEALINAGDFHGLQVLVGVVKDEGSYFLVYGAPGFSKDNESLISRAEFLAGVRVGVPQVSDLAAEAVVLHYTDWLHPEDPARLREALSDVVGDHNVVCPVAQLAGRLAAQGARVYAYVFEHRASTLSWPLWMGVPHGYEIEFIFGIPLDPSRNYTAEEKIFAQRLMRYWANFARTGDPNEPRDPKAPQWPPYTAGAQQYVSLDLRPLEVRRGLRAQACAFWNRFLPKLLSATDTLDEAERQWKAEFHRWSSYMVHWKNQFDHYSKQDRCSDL
Provide the reported IC50 of each item.
Answers are plain numbers, in µM.

Solved entries (count: 2):
• COc1cc(CCC(=O)/C=C/CCCNc2c3c(nc4cc(Cl)ccc24)CC2CC(C)=CC3C2)ccc1O (stereo not drawn) = 0.0067
• COc1cc(CCC(=O)/C=C/c2ccc(CNc3c4c(nc5cc(Cl)ccc35)CC3CC(C)=CC4C3)cc2)cc(CN(C)C)c1O (stereo not drawn) = 0.0211

Consider the compound COc1cc(CCC(=O)/C=C/c2ccc(CNc3c4c(nc5cc(Cl)ccc35)CC3CC(C)=CC4C3)cc2)ccc1O (stereo not drawn) and give its recorded IC50.
0.0183

* * *

test: Antioxidant activity assessed as total polyphenolics measured as gallic acid equivalent after 30 mins by Folin-Ciocalteu assay; format: physicochemical; conditions: 0.5 h
Provide the reported Activity of each item.
One number for each entry, in mgequiv/g.

Solved entries (count: 3):
* COc1cc(CCC(=O)/C=C/c2ccc(CNc3c4c(nc5cc(Cl)ccc35)CC3CC(C)=CC4C3)cc2)ccc1O (stereo unspecified) | 50
* COc1cc(CCC(=O)/C=C/c2ccc(CNc3c4c(nc5cc(Cl)ccc35)CC3CC(C)=CC4C3)cc2)cc(CN(C)C)c1O (stereo unspecified) | 68.8
* CC1=CC2Cc3nc4cc(Cl)ccc4c(N)c3C(C1)C2 (stereo unspecified) [HUPRINE Y] | 10.2

For each entry beneath this line, provide reported Activity.
1. COc1cc(CCC(=O)/C=C/CCCNc2c3c(nc4cc(Cl)ccc24)CC2CC(C)=CC3C2)ccc1O (stereo unspecified)
2. O=C(O)c1cc(O)c(O)c(O)c1 [GALLIC ACID]
3. CCCCC/C=C/C(=O)CCc1ccc(O)c(OC)c1 [SHOGAOL]

[29.8, 1033, 384]

* * *

assay: Antioxidant activity assessed as ABTS free radical scavenging activity measured as trolox equivalent after 1 hr by spectrophotometry; assay type: physicochemical
Label rule, in plain words: Activity of 20 and up is t, under 20 is f.

Solved cases below.
* COc1cc(CCC(=O)/C=C/c2ccc(CNc3c4c(nc5cc(Cl)ccc35)CC3CC(C)=CC4C3)cc2)ccc1O (stereo unspecified) | f
* CC1=CC2Cc3nc4cc(Cl)ccc4c(N)c3C(C1)C2 (stereo unspecified) | f
* O=C(O)c1cc(O)c(O)c(O)c1 | f
* COc1cc(CCC(=O)/C=C/c2ccc(CNc3c4c(nc5cc(Cl)ccc35)CC3CC(C)=CC4C3)cc2)cc(CN(C)C)c1O (stereo unspecified) | f
* CCCCC/C=C/C(=O)CCc1ccc(O)c(OC)c1 | t

Kindly consider the entry below.
Check if Activity >= 20 (inclusive). Item: COc1cc(CCC(=O)/C=C/CCCNc2c3c(nc4cc(Cl)ccc24)CC2CC(C)=CC3C2)ccc1O (stereo unspecified)
f

* * *

biological target: Microtubule-associated protein tau (Homo sapiens); assay: Inhibition of aggregation of TAU (unknown origin) expressed in Escherichia coli BL21 (DE3) at 10 uM after 24 hrs by thioflavin S fluorescence assay
Provide the reported inhibition of each item.
One number for each entry, in %.

Solved entries (count: 4):
- COc1cc(CCC(=O)/C=C/c2ccc(CNc3c4c(nc5cc(Cl)ccc35)CC3CC(C)=CC4C3)cc2)cc(CN(C)C)c1O (stereo not given): 40.1
- COc1cc(CCC(=O)/C=C/CCCNc2c3c(nc4cc(Cl)ccc24)CC2CC(C)=CC3C2)ccc1O (stereo not given): 35.2
- CC1=CC2Cc3nc4cc(Cl)ccc4c(N)c3C(C1)C2 (stereo not given) [HUPRINE Y]: 7.6
- CCCCC/C=C/C(=O)CCc1ccc(O)c(OC)c1 [SHOGAOL]: 9.2

Continue with the next compound.
Consider the compound COc1cc(CCC(=O)/C=C/c2ccc(CNc3c4c(nc5cc(Cl)ccc35)CC3CC(C)=CC4C3)cc2)ccc1O (stereo not given) and give its recorded inhibition.
51
